Reference for the values: paper PMC5746459

# tested target: human DAT (hDAT) WT (Homo sapiens, UniProt Q01959)
# Sequence (Q01959 whole entry): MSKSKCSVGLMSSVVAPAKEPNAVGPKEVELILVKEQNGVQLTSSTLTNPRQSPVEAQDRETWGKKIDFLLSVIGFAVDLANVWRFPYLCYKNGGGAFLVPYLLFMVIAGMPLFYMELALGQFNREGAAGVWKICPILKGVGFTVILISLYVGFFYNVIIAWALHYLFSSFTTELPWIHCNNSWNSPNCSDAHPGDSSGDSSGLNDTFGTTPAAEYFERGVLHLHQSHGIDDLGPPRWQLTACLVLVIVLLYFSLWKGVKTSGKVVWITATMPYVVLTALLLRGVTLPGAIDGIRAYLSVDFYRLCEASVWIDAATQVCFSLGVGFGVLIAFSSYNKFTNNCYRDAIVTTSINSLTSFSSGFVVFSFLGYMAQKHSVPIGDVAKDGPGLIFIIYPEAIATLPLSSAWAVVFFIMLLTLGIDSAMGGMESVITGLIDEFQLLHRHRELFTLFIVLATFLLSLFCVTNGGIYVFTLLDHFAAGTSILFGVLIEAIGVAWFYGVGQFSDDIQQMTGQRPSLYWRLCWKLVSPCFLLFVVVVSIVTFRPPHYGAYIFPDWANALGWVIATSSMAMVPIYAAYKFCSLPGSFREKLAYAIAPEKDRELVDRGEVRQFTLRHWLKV
# test details: [3H]DA uptake inhibition in COS7 cells transiently expressing DAT WT
# Format: cell-based
# condition context: read-out: DAT WT Ki, [3H]DA uptake inhibition; COS7 cells transiently expressing DAT WT; mean [s.e.m. interval]

{"compound": "CN1[C@H]2CC[C@@H]1[C@@H](c1cc(-c3ccccc3)no1)[C@H](OC(c1ccc(F)cc1)c1ccc(F)cc1)C2 [S-(+)-19a]", "Ki / µM": 0.212}
